Experiment: Hydrolysis test carried out in the dark
Type: physicochemical
Conditions: pH 6, 8, in the dark
quantity_measured: ½ LIFE (hydrolysis)

Completed entries (count: 3):
[[record]]
molecule = "O=C1C=CC(=O)c2c(O)cccc21 [Juglone, 5-hydroxy-1,4-naphthalenedione, reference compound]"
observed_measurement = ">288 h"

[[record]]
molecule = "CC1(S(=O)(=O)O)CC(=O)c2ccccc2C1=O.Cc1cc(C)[nH]c(=O)n1 (stereo not shown)"
observed_measurement = "48 h"

[[record]]
molecule = "CC1=CC(=O)c2ccccc2C1=O [Menadione, 2-methyl-1,4-naphthalenedione, reference compound]"
observed_measurement = "1500 h"


Next, consider the following molecule.
Q. Requested read-out: ½ LIFE (hydrolysis). Entry: CC1(S(=O)(=O)O)CC(=O)c2ccccc2C1=O.NC(=O)c1cccnc1 (stereo not shown) [MNB, menadione nicotinamide bisulphite]
A. 48 h

###

Assay: Hydrolysis test carried out in the dark
Type: physicochemical
Settings: pH 9, in the dark
Please go through the items and note down their ½ LIFE (hydrolysis).
Numbers only, in h.

[[record]]
compound = "CC1=CC(=O)c2ccccc2C1=O [Menadione, 2-methyl-1,4-naphthalenedione, reference compound]"
observed_measurement = 550


Q. Requested read-out: ½ LIFE (hydrolysis). Entry: O=C1C=CC(=O)c2c(O)cccc21 [Juglone, 5-hydroxy-1,4-naphthalenedione, reference compound]
A. 15

###

Assay: Photo-degradability under daylight and UV
Assay type: physicochemical
Settings: 10 ppm in drinking water (pH 6,5-7,5)
quantity_measured: Light exp. Tot Degr. (h)
Answers are plain numbers, in h.

Batch lookup, Light exp. Tot Degr. per entry.
1. O=C1C=CC(=O)c2c(O)cccc21 [Juglone, 5-hydroxy-1,4-naphthalenedione, reference compound]
2. CC1(S(=O)(=O)O)CC(=O)c2ccccc2C1=O.NC(=O)c1cccnc1 (stereo not shown) [MNB, menadione nicotinamide bisulphite]
3. CC1(S(=O)(=O)O)CC(=O)c2ccccc2C1=O.Cc1cc(C)[nH]c(=O)n1 (stereo not shown)

A.
[48, 48, 48]
